assay: Pharmacokinetics of oral BBR in mice (portal vein and liver); format: in vivo, mice; details: mouse, portal vein plasma, po, 200 mg/kg, portal vein; mice, oral BBR 200 mg/kg in 10% NADES dilution
Where a name gives a salt, the structure may show the parent alone.
observationType: AUC(0-inf) (ng·h/mL)
Your answer is read as ng·h/mL, so omit the unit and give the number.

Lookup: Reported AUC(0-inf), compound COc1ccc2cc3[n+](cc2c1OC)CCc1cc2c(cc1-3)OCO2 [BBR, Berberine hydrochloride] : ____
Found: 3610

====

assay: Pharmacokinetics of oral BBR in mice (portal vein and liver); type: in vivo, mice; conditions: mouse, liver, po, 200 mg/kg, livers; mice, oral BBR 200 mg/kg dissolved in water (Control)
Structures can show the parent of a compound that is named as a salt.
observationType: MRT (h)
Your answer is read as h, so omit the unit and give the number.

Lookup: Reported MRT, compound COc1ccc2cc3[n+](cc2c1OC)CCc1cc2c(cc1-3)OCO2 [BBR, Berberine hydrochloride] : ____
Found: 3.7

====

test: Pharmacokinetics of oral BBR in mice (portal vein and liver); type: in vivo, mice; conditions: mouse, liver, po, 200 mg/kg, livers; mice, oral BBR 200 mg/kg in malic acid solution 98 mg/kg
Where a name gives a salt, the structure may show the parent alone.
observationType: half-life (h)
Your answer is read as h, so omit the unit and give the number.

Lookup: Reported half-life, compound COc1ccc2cc3[n+](cc2c1OC)CCc1cc2c(cc1-3)OCO2 [BBR, Berberine hydrochloride] : ____
Found: 2.3

====

assay: Pharmacokinetics of oral BBR in mice (portal vein and liver); type: in vivo, mice; conditions: mouse, portal vein plasma, po, 200 mg/kg, portal vein; mice, oral BBR 200 mg/kg in 1% NADES dilution; read-out: AUC0–12 h
Where a name gives a salt, the structure may show the parent alone.
observationType: AUC(0-t) (ng·h/mL)
Your answer is read as ng·h/mL, so omit the unit and give the number.

Lookup: Reported AUC(0-t), compound COc1ccc2cc3[n+](cc2c1OC)CCc1cc2c(cc1-3)OCO2 [BBR, Berberine hydrochloride] : ____
Found: 2730

====

experiment: Pharmacokinetics of oral BBR in mice (portal vein and liver); assay type: in vivo, mice; details: mouse, portal vein plasma, po, 200 mg/kg, portal vein; mice, oral BBR 200 mg/kg in malic acid solution 980 mg/kg
Counter-ions that a name gives are not always drawn.
observationType: Tmax (h)
Your answer is read as h, so omit the unit and give the number.

Lookup: Reported Tmax, compound COc1ccc2cc3[n+](cc2c1OC)CCc1cc2c(cc1-3)OCO2 [BBR, Berberine hydrochloride] : ____
Found: 1

====

assay: Pharmacokinetics of oral BBR in mice (portal vein and liver); assay type: in vivo, mice; settings: mouse, portal vein plasma, po, 200 mg/kg, portal vein; mice, oral BBR 200 mg/kg in malic acid solution 980 mg/kg; read-out: AUC0–12 h
Structures can show the parent of a compound that is named as a salt.
observationType: AUC(0-t) (ng·h/mL)
Your answer is read as ng·h/mL, so omit the unit and give the number.

Lookup: Reported AUC(0-t), compound COc1ccc2cc3[n+](cc2c1OC)CCc1cc2c(cc1-3)OCO2 [BBR, Berberine hydrochloride] : ____
Found: 3060

====

assay: Pharmacokinetics of oral BBR in mice (portal vein and liver); assay type: in vivo, mice; conditions: mouse, liver, po, 200 mg/kg, livers; mice, oral BBR 200 mg/kg in 10% NADES dilution
Counter-ions that a name gives are not always drawn.
observationType: half-life
Answer format reminder: number followed by unit.

Lookup: Reported half-life, compound COc1ccc2cc3[n+](cc2c1OC)CCc1cc2c(cc1-3)OCO2 [BBR, Berberine hydrochloride] : ____
Found: 2.2 h

====

assay: Pharmacokinetics of oral BBR in mice (portal vein and liver); assay type: in vivo, mice; conditions: mouse, portal vein plasma, po, 200 mg/kg, portal vein; mice, oral BBR 200 mg/kg in 1% NADES dilution
Counter-ions that a name gives are not always drawn.
observationType: half-life (h)
Your answer is read as h, so omit the unit and give the number.

Lookup: Reported half-life, molecule COc1ccc2cc3[n+](cc2c1OC)CCc1cc2c(cc1-3)OCO2 [BBR, Berberine hydrochloride] : ____
Found: 1.3

====

Experiment: Pharmacokinetics of oral BBR in mice (portal vein and liver)
Assay type: in vivo, mice
Settings: mouse, liver, po, 200 mg/kg, livers; mice, oral BBR 200 mg/kg in 10% NADES dilution
Protocol: The dosages of malic acid were, respectively, equal to the dosages of malic acid in the 1 and 10% water dilutions of the NADES. […] A non-compartmental analysis using WinNonlin® software (Pharsight, CA, United States) was performed to obtain the pharmacokinetic parameters of berberine in mice. It should be noted that the pharmacokinetic parameters were calculated based on the average drug concentration at each time point because the mice were not continuously sampled.
Where a name gives a salt, the structure may show the parent alone.
observationType: MRT (h)
Your answer is read as h, so omit the unit and give the number.

Lookup: Reported MRT, compound COc1ccc2cc3[n+](cc2c1OC)CCc1cc2c(cc1-3)OCO2 [BBR, Berberine hydrochloride] : ____
Found: 3

====

Experiment: Pharmacokinetics of oral BBR in mice (portal vein and liver)
Format: in vivo, mice
Conditions: mouse, liver, po, 200 mg/kg, livers; mice, oral BBR 200 mg/kg in 1% NADES dilution
Experimental: The dosages of malic acid were, respectively, equal to the dosages of malic acid in the 1 and 10% water dilutions of the NADES. […] A non-compartmental analysis using WinNonlin® software (Pharsight, CA, United States) was performed to obtain the pharmacokinetic parameters of berberine in mice. It should be noted that the pharmacokinetic parameters were calculated based on the average drug concentration at each time point because the mice were not continuously sampled.
Where a name gives a salt, the structure may show the parent alone.
observationType: MRT (h)
Your answer is read as h, so omit the unit and give the number.

Lookup: Reported MRT, compound COc1ccc2cc3[n+](cc2c1OC)CCc1cc2c(cc1-3)OCO2 [BBR, Berberine hydrochloride] : ____
Found: 3.2

====

assay: Pharmacokinetics of oral BBR in mice (portal vein and liver); assay type: in vivo, mice; settings: mouse, portal vein plasma, po, 200 mg/kg, portal vein; mice, oral BBR 200 mg/kg in 10% NADES dilution
Counter-ions that a name gives are not always drawn.
observationType: Tmax (h)
Your answer is read as h, so omit the unit and give the number.

Lookup: Reported Tmax, molecule COc1ccc2cc3[n+](cc2c1OC)CCc1cc2c(cc1-3)OCO2 [BBR, Berberine hydrochloride] : ____
Found: 1

====

experiment: Pharmacokinetics of oral BBR in mice (portal vein and liver); format: in vivo, mice; conditions: mouse, portal vein plasma, po, 200 mg/kg, portal vein; mice, oral BBR 200 mg/kg in malic acid solution 98 mg/kg; read-out: AUC0–12 h
Where a name gives a salt, the structure may show the parent alone.
observationType: AUC(0-t) (ng·h/mL)
Your answer is read as ng·h/mL, so omit the unit and give the number.

Lookup: Reported AUC(0-t), molecule COc1ccc2cc3[n+](cc2c1OC)CCc1cc2c(cc1-3)OCO2 [BBR, Berberine hydrochloride] : ____
Found: 2230

====

assay: Pharmacokinetics of oral BBR in mice (portal vein and liver); assay type: in vivo, mice; conditions: mouse, portal vein plasma, po, 200 mg/kg, portal vein; mice, oral BBR 200 mg/kg in malic acid solution 98 mg/kg
Structures can show the parent of a compound that is named as a salt.
observationType: MRT (h)
Your answer is read as h, so omit the unit and give the number.

Lookup: Reported MRT, compound COc1ccc2cc3[n+](cc2c1OC)CCc1cc2c(cc1-3)OCO2 [BBR, Berberine hydrochloride] : ____
Found: 2.7

====

assay: Pharmacokinetics of oral BBR in mice (portal vein and liver); assay type: in vivo, mice; details: mouse, portal vein plasma, po, 200 mg/kg, portal vein; mice, oral BBR 200 mg/kg in 1% NADES dilution
Counter-ions that a name gives are not always drawn.
observationType: MRT (h)
Your answer is read as h, so omit the unit and give the number.

Lookup: Reported MRT, compound COc1ccc2cc3[n+](cc2c1OC)CCc1cc2c(cc1-3)OCO2 [BBR, Berberine hydrochloride] : ____
Found: 2.9

====

assay: Pharmacokinetics of oral BBR in mice (portal vein and liver); format: in vivo, mice; details: mouse, portal vein plasma, po, 200 mg/kg, portal vein; mice, oral BBR 200 mg/kg in malic acid solution 980 mg/kg
Structures can show the parent of a compound that is named as a salt.
observationType: MRT (h)
Your answer is read as h, so omit the unit and give the number.

Lookup: Reported MRT, compound COc1ccc2cc3[n+](cc2c1OC)CCc1cc2c(cc1-3)OCO2 [BBR, Berberine hydrochloride] : ____
Found: 2.1

====

test: Pharmacokinetics of oral BBR in mice (portal vein and liver); assay type: in vivo, mice; conditions: mouse, liver, po, 200 mg/kg, livers; mice, oral BBR 200 mg/kg in malic acid solution 980 mg/kg
Counter-ions that a name gives are not always drawn.
observationType: Tmax (h)
Your answer is read as h, so omit the unit and give the number.

Lookup: Reported Tmax, molecule COc1ccc2cc3[n+](cc2c1OC)CCc1cc2c(cc1-3)OCO2 [BBR, Berberine hydrochloride] : ____
Found: 1

These data points were gathered from paper PMC8215677.
